molecular target: PRKCQ (Homo sapiens (Human))
Sequence (Q04759 whole entry): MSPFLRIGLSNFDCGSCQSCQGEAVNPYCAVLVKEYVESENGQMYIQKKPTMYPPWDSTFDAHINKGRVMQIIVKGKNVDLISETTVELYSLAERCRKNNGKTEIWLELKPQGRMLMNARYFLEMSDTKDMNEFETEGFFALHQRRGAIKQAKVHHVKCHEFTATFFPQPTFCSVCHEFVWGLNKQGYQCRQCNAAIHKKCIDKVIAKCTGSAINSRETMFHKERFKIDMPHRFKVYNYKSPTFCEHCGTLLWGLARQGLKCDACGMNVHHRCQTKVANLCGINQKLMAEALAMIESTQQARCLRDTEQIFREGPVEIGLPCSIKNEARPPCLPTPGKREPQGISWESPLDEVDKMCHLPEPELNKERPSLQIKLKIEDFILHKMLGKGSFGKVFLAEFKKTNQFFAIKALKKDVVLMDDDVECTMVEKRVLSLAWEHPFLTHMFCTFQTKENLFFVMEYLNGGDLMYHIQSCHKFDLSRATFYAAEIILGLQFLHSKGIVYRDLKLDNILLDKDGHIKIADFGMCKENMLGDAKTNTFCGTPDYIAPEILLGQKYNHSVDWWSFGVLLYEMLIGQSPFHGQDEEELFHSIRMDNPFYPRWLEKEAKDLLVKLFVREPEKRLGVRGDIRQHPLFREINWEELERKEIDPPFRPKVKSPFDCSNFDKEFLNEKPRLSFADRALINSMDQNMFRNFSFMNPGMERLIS
readout.label: IC50

Given the compound C=CC(=O)Nc1ccc(C(=O)Nc2cccc(Nc3n[nH]c4c3CN(C(=O)N[C@H](CN(C)C)c3ccccc3)C4(C)C)c2)cc1 [Compound 101] and test system PRKCQ (Homo sapiens (Human)), the measured IC50 is < 100 nM

----------
target: CDK2 (Homo sapiens (Human), UniProt P24941); assay: Inhibition of kinase activity, CDK2; format: biochemical; conditions: co-factor cyclin A
pIC50: −log10 of the molar value.
readout.label: pIC50

response.value for C=CC(=O)Nc1ccc(C(=O)Nc2cccc(Nc3n[nH]c4c3CN(C(=O)N[C@H](CN(C)C)c3ccccc3)C4(C)C)c2)cc1 [Compound 101] (field: pIC50) = ≤ 6.00

----------
molecular target: CDK7 (Homo sapiens (Human), UniProt P50613); test: Inhibition of kinase activity, CDK7; format: biochemical; details: co-factors cyclin H and MNAT1
Sequence (P50613 whole entry): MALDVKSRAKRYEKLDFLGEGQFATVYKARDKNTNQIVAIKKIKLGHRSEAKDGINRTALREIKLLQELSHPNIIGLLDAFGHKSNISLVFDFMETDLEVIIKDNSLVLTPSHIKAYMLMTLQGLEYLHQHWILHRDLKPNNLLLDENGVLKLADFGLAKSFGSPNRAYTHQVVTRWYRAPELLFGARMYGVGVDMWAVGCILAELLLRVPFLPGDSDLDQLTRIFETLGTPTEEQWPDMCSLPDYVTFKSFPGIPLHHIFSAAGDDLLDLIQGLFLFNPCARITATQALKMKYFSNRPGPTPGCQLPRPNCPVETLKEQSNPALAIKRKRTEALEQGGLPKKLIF
Sequence (P51946 whole entry partner): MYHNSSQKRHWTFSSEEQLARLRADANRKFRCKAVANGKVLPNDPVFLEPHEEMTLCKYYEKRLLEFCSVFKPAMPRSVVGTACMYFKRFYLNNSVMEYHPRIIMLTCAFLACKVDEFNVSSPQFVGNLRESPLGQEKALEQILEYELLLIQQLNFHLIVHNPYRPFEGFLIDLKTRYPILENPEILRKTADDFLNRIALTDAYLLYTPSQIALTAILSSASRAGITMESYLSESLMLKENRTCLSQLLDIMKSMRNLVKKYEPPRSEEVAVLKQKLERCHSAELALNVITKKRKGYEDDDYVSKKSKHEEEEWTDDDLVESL
Sequence (P51948 whole entry partner): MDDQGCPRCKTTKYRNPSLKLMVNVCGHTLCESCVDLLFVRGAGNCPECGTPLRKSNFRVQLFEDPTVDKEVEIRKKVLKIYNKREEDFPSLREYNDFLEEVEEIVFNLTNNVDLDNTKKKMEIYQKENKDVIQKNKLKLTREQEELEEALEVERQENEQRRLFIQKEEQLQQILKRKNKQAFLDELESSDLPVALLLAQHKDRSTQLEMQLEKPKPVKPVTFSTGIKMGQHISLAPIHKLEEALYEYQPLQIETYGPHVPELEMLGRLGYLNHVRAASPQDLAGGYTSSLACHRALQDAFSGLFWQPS
readout.label: IC50

molecule: C=CC(=O)N1CCC[C@H](C(=O)Nc2n[nH]c3c2CN(C(=O)N[C@H](CN(C)C)c2ccccc2)C3(C)C)C1 [Compound 114]
result: < 100 nM

molecule: C=CC(=O)Nc1ccc(C(=O)Nc2n[nH]c3c2CN(C(=O)N[C@H](CN(C)C)c2ccccc2)[C@H]3C(C)C)cc1 [Compound 235]
result: ≥ 1000 nM

molecule: C=CC(=O)Nc1ccc(C(=O)Nc2c3c(nn2C)C(C)(C)N(C(=O)N[C@H](CN(C)C)c2ccccc2)C3)cc1 [Compound 242]
result: ≥ 1000 nM

molecule: C=CC(=O)N1CCC(Nc2n[nH]c3c2CN(C(=O)N[C@H](CN(C)C)c2ccccc2)C3(C)C)CC1 [Compound 231]
result: < 100 nM

molecule: C=CC(=O)Nc1ccc(C(=O)N2CCC(Nc3n[nH]c4c3CN(C(=O)N[C@H](CN(C)C)c3ccccc3)C4(C)C)CC2)cc1 [Compound 116]
result: < 100 nM

response.value for C=CC(=O)Nc1ccc(C(=O)Nc2n[nH]c3c2CN(C(=O)N[C@H](CN(C)C)c2ccccc2)[C@H]3c2ccccc2)cc1 [Compound 239] (field: IC50) = ≥ 1000 nM

response.value for C=CC(=O)Nc1cccc(C(=O)Nc2n[nH]c3c2CN(C(=O)N[C@H](CN(C)C)c2ccccc2)C3(C)C)c1 [Compound 120] (field: IC50) = < 100 nM

response.value for C=CC(=O)Nc1ccc(C(=O)N[C@H]2CCC[C@@H](Nc3n[nH]c4c3CN(C(=O)N[C@H](CN(C)C)c3ccccc3)C4(C)C)C2)cc1 [Compound 117] (field: IC50) = < 100 nM

----------
pIC50: −log10 of the molar value.
This document collects pIC50 values reported for MELK (Homo sapiens (Human), UniProt Q14680).

response.value for C=CC(=O)Nc1ccc(C(=O)Nc2cccc(Nc3n[nH]c4c3CN(C(=O)NCCN(C)C)C4(C)C)c2)cc1 (field: pIC50) = 6.00 to 7.00

response.value for C=CC(=O)Nc1ccc(C(=O)Nc2cccc(Nc3n[nH]c4c3CN(C(=O)N[C@H](CN(C)C)c3ccccc3)C4(C)C)c2)cc1 (field: pIC50) = 6.00 to 7.00

----------
tested on: Kelly neuroblastoma; assay: Inhibition of cell proliferation (CellTiter-Glo), Kelly; format: cell-based; conditions: 72 hours incubation, CellTiter-Glo, 4,000 cells/well
pIC50: −log10 of the molar value.
readout.label: pIC50

response.value for C=CC(=O)Nc1ccc(C(=O)Nc2cccc(Nc3n[nH]c4c3CN(C(=O)N[C@H](CN(C)C)c3ccccc3)C4(C)C)c2)cc1 (field: pIC50) = 2.30 to 6.30

response.value for C=CC(=O)Nc1ccc(C(=O)Nc2cccc(C(=O)Nc3n[nH]c4c3CN(C(=O)N[C@H](CN(C)C)c3ccccc3)C4(C)C)c2)cc1 (field: pIC50) = 2.30 to 6.30

response.value for C=CC(=O)Nc1ccc(C(=O)Nc2cccc(Nc3n[nH]c4c3CN(C(=O)NCCN(C)C)C4(C)C)c2)cc1 (field: pIC50) = ≤ 2.30

response.value for C=CC(=O)Nc1ccc(C(=O)Nc2ccc(Nc3n[nH]c4c3CN(C(=O)N[C@H](CN(C)C)c3ccccc3)C4(C)C)cc2)cc1 (field: pIC50) = ≤ 2.30
